These measurements were taken from patent US20170029530A1.

Reported Kd values follow for various binders
- test system: T1, hDPEP3-ECD-His (human, UniProt Q9H4B8 36-463)
- T1 construct: also called hDPEP3-His; monomeric hDPEP3-His antigen; not shown: histidine tag
- T1 sequence: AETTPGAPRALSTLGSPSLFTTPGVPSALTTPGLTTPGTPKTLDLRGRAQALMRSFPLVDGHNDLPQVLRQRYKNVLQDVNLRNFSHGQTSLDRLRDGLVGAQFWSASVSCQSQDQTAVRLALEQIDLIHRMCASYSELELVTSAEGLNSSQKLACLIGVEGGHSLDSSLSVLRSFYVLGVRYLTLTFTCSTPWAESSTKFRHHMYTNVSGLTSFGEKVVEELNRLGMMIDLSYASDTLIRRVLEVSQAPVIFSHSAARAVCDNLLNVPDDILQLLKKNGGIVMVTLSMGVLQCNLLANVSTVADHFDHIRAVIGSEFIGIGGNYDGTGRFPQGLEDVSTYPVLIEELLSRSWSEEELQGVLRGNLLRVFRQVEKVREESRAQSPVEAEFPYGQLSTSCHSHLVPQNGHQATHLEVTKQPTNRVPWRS
- assay comment: BLI ForteBio RED, 200 nM hDPEP3-His, estimated grade

In the examples that follow, each entry is paired with its recorded Kd.
• SC34.49 (antibody, mouse IgG1, V domains shown) VH: EVQLQQSGPELVKPGSSVKISCKASGYTFTDYHMNWVKQSHGKSLEWIGNINPYYGVSTYNQNLKGTATLTVDKSSSTAYMELRGLTSEDSAVYYCVRRAMDSPRFAYWGQGTLVTVSA VL: DIQMTQSSSYLSVSLGGRVTITCKASEHINNWLAWYQQKPGNPPRLLISGATSLETGVPSRFSGSGSGKDYTLSITGLQTEDIATYFCQQYRSTPFTFGSGTKLEIK = > 10 nM
• SC34.50 (antibody, mouse IgG2b, V domains shown) VH: QVQLQQPGAELVRPGASVKLSCKASGYTFTSYWINWVKQRPGQGLEWIGNIFPSDSYTNYNQKFRDKATLTVDKSSSTAYMQLSSPTSEDSAVYYCTIRTYGNYFDYWGQGTTLTVSS VL: DIQMTQSSSSFSVSLGDRVTITCKASEDIYNRLAWYQQKPGNAPRLLISGATSLETGVPSRFSGSGSGKDYTLSITSLQTEDVATYYCQQYWSTIFTFGSGTKLEIK = > 10 nM

Data request: Please look up its Kd: SC34.76 (antibody, mouse IgG1, V domains shown) VH: QVQLQQSGAELARPGASVKLSCKTSEYTFTSYAINWVKQRTGQGLEWIGEVYPGSGNTYYNEKFKGKAILTTDKSSSTGYMQLSNLTSEDSAVYFCARVHDYGSWFPYWGQGTLVTVSA VL: DIVMSQSPSSLAVSVGERVTMNCKSSQSLFYSRYQKNYLAWYQQKPGQSPKLLIYWASTRESGVPDRFTGSGSGTDFTLTISSVKAEDLAVYYCQQYYRYPLTFGAGTKLELK
Data returned: < 5 nM
